# System: SK-MEL-28
# assay.comment: Growth inhibition of human SK-MEL-28 cells after 48 hrs by sulforhodamine B assay
# Assay type: functional
# run.parameters: SK-MEL-28, 48 h
# GI50 per entry
metric: GI50 (nM)

>>> recorded_number("C=C1c2c(C)nn(-c3ccccc3)c2N(C)C23CC1C1(C)c4c(C)nn(-c5ccccc5)c4N(C)C(C)(CC12)C3 (centres undefined)")
2260
>>> recorded_number("COc1ccc(-n2nc(C)c3c2N(C)C2(C)CC4C3(C)C3CC4(C2)N(C)c2c(c(C)nn2-c2ccc(OC)cc2)C3C)cc1 (centres undefined)")
1520
>>> recorded_number("Cc1nn(-c2ccccc2)c2c1C(C)C1CC3(CC4(C)CC3C1(C)c1c(C)nn(-c3ccccc3)c1N4C)N2C (centres undefined)")
3140
>>> recorded_number("C=C1c2c(C)nn(-c3ccc(OC)cc3)c2N(C)C23CC1C1(C)c4c(C)nn(-c5ccc(OC)cc5)c4N(C)C(C)(CC12)C3 (centres undefined)")
5860

----------
# GI50 per entry
# Tested on: TK-10
# assay.comment: Growth inhibition of human TK10 cells after 48 hrs by sulforhodamine B assay
# Assay type: functional
# run.parameters: TK-10, 48 h
metric: GI50 (µM)

>>> recorded_number("C=C1c2c(C)nn(-c3ccccc3)c2N(C)C23CC1C1(C)c4c(C)nn(-c5ccccc5)c4N(C)C(C)(CC12)C3 (centres undefined)")
4.77
>>> recorded_number("COc1ccc(-n2nc(C)c3c2N(C)C2(C)CC4C3(C)C3CC4(C2)N(C)c2c(c(C)nn2-c2ccc(OC)cc2)C3C)cc1 (centres undefined)")
4.77
>>> recorded_number("C=C1c2c(C)nn(-c3ccc(OC)cc3)c2N(C)C23CC1C1(C)c4c(C)nn(-c5ccc(OC)cc5)c4N(C)C(C)(CC12)C3 (centres undefined)")
3.63

----------
# Tested on: MDA-MB-231
# assay.comment: Growth inhibition of human MDA-MB-231 cells after 48 hrs by sulforhodamine B assay
# Assay type: functional
# run.parameters: MDA-MB-231, 48 h
metric: GI50

>>> result("C=C1c2c(C)nn(-c3ccc(OC)cc3)c2N(C)C23CC1C1(C)c4c(C)nn(-c5ccc(OC)cc5)c4N(C)C(C)(CC12)C3 (centres undefined)")
"3.11 µM"
>>> result("Cc1nn(-c2ccccc2)c2c1C(C)C1CC3(CC4(C)CC3C1(C)c1c(C)nn(-c3ccccc3)c1N4C)N2C (centres undefined)")
"> 100 µM"
>>> result("COc1ccc(-n2nc(C)c3c2N(C)C2(C)CC4C3(C)C3CC4(C2)N(C)c2c(c(C)nn2-c2ccc(OC)cc2)C3C)cc1 (centres undefined)")
"6.35 µM"
>>> result("C=C1c2c(C)nn(-c3ccccc3)c2N(C)C23CC1C1(C)c4c(C)nn(-c5ccccc5)c4N(C)C(C)(CC12)C3 (centres undefined)")
"4.55 µM"

----------
# GI50 per entry
# Tested on: NCI-H226
# assay.comment: Growth inhibition of human NCI-H226 cells after 48 hrs by sulforhodamine B assay
# Format: functional
# run.parameters: NCI-H226, 48 h
metric: GI50 (µM)

>>> recorded_number("C=C1c2c(C)nn(-c3ccc(OC)cc3)c2N(C)C23CC1C1(C)c4c(C)nn(-c5ccc(OC)cc5)c4N(C)C(C)(CC12)C3 (centres undefined)")
4.44
>>> recorded_number("C=C1c2c(C)nn(-c3ccccc3)c2N(C)C23CC1C1(C)c4c(C)nn(-c5ccccc5)c4N(C)C(C)(CC12)C3 (centres undefined)")
15.3
>>> recorded_number("COc1ccc(-n2nc(C)c3c2N(C)C2(C)CC4C3(C)C3CC4(C2)N(C)c2c(c(C)nn2-c2ccc(OC)cc2)C3C)cc1 (centres undefined)")
5.34
